Catalogue of INHIBITION values
# System: Plasmodium berghei
# Assay notes: Screen against P. berghei liver stage (PbLuc), transformed with Luciferase, at 10uM
# Type: functional, HepG2
# Particulars: tested at 10 uM
About 8,600 (12%) of roughly 69,000 compounds showed an effect of 50% or more. Only a selection was taken, and strong results are over-represented in it overall.
Assay endpoint: INHIBITION (%)

* CN(C)C(=O)COCC1CN(CC2CCOCC2)Cc2ncn(C)c21 (configuration not stated) | 4.57
* CN(C)CCOCC1CN(Cc2ccoc2)Cc2nnn(C)c21 (configuration not stated) | 18.5
* CCn1nnc2c1C(COC)CN(Cc1ccco1)C2 (configuration not stated) | -30.1
* CCn1nnc2c1C(COCCN(C)C)CN(S(=O)(=O)CC)C2 (configuration not stated) | 52.6
* COc1ccccc1-c1nc(C(=O)N(C)C)n2ccncc12 | 30.8
* CCn1nnc2c1C(COCCN(C)C)CN(Cc1ccco1)C2 (configuration not stated) | 62.3
* CCn1nnc2c1C(COCCN(C)C)CN(c1nncs1)C2 (configuration not stated) | 57.1
* CCSCc1ccc(C(=O)N2CCCN(CC)CC2)cc1 | 47
* O=c1[nH]c2cc3c(cc2cc1CN1CCCC1c1ccccn1)OCO3 (configuration not stated) | 6.94
* CCS(=O)(=O)N1Cc2nnn(C)c2C(COCCN(C)C)C1 (configuration not stated) | 48.2
* CCn1nc(C)c(CNC(=O)c2nnc3ccc(OC)cc3n2)c1C | 41.6
* O=c1[nH]c2cc3c(cc2cc1CN1CCCC1c1ccccn1)CCC3 (configuration not stated) | 56.5

###

# Tested on: Plasmodium berghei
# Assay notes: Screen against P. berghei liver stage (PbLuc), transformed with Luciferase, at 10uM
# Format: functional, HepG2
# Particulars: tested at 10 uM
Screen size: about 69,000 compounds; about 8,600 (12%) showed an effect of 50% or more. Shown is part of a subset that was picked to be rich in strong results.
Please use 1 whenever INHIBITION is not below 30%, and -1 whenever it is.

- CC(C)c1nc(CN(C)C2CCN(Cc3nnc(C4CC4)o3)C2)no1 (stereo not drawn): -1
- CCc1nc(CN2CCCN(Cc3nnc(C4CC4)o3)CC2)no1: 1
- O=C(N1CCCC1)N1C[C@@H]2CN(Cc3ccoc3)CCO[C@@H]2C1: 1
- Cc1cc(Cl)ccc1NCC(=O)Nc1cc(C(C)(C)C)no1: -1
- CC(=O)NCC(=O)N1CCOC2(CCCN(c3ccc(C)nn3)C2)C1 (stereo not drawn): -1
- Cc1ccc(NC(C)(C)c2nnnn2-c2ccc(Cl)cc2)c(C)c1: 1
- CCS(=O)(=O)NC(CCSC)C(=O)Nc1cccc(C)c1C (stereo not drawn): -1
- COc1ccc(-n2nnc(C(=O)NC(C)C)c2C2CC2)cc1: 1
- CN(Cc1noc(C2CC2)n1)C1CCN(CCc2cccs2)C1 (stereo not drawn): 1
- Cc1cccc(-n2nnnc2C(C)(C)Nc2ccccc2C)c1: 1
- O=C(N1CCCC1)N1CC[C@H]2OCC[C@@]2(COc2ncccc2F)C1: -1
- Cc1nc(CN(C)C2CCN(Cc3nnc(C4CC4)o3)C2)no1 (stereo not drawn): -1
- COc1ccc(-n2nnnc2C(C)(C)Nc2ccc(C)cc2C)cc1: 1
- CN(Cc1nnc(C2CC2)o1)C1CCN(CCc2cccs2)C1 (stereo not drawn): 1
- COc1ccc(-n2nnnc2C2(NCc3ccco3)CCCCC2)cc1: -1
- C1CN(Cc2noc(C3CC3)n2)CCN(Cc2nnc(C3CC3)o2)C1: 1
- O=C(c1cocn1)N1C[C@@H]2CN(CC3CC3)CCO[C@@H]2C1: -1
- CCN1CCO[C@@H]2CN(C(=O)c3cocn3)C[C@@H]2C1: -1
- O=S(=O)(c1ccc(F)cc1)N1CCCC1c1cc[nH]n1 (stereo not drawn): 1
- O=C(CC1CCCC1)N1C[C@@H]2CN(Cc3ccoc3)CCO[C@@H]2C1: 1
- CCN1C(=O)[C@H]2CN(CC(C)C)C[C@H]2C12CCN(S(C)(=O)=O)CC2: -1
- CN(Cc1nnc(C2CC2)n1C)C1CCN(CCc2cccs2)C1 (stereo not drawn): -1
- CC(C)c1nc(CN2CCCN(Cc3nnc(C4CC4)o3)CC2)no1: -1

###

# System: Plasmodium berghei
# Assay notes: Screen against P. berghei liver stage (PbLuc), transformed with Luciferase, at 10uM
# Assay type: functional, HepG2
# Particulars: tested at 10 uM
The whole screen tested about 69,000 compounds, of which about 8,600 (12%) showed an effect of 50% or more. This is one part of a sample in which strong results are shown more often than they occur.
Under this convention, class 1 denotes INHIBITION strictly below 40% and class 0 denotes INHIBITION at or above 40%.

* Cc1cc(C[C@@H]2CCC[C@H]2NCc2ccccc2C(F)(F)F)on1 | class 0
* COc1ccc2c(c1)OC1(CCN(Cc3ccc(C)cc3)CC1)CC2=O | class 1
* COc1ccc2c(c1)OC1(CCN(Cc3cccc(C)c3)CC1)CC2=O | class 1
* CCN(CC)C(=O)Cn1cc(C(=O)NCCc2scnc2C)nn1 | class 1
* CCN(CC)C(=O)Cn1cc(C(=O)NCCCc2scnc2C)nn1 | class 0
* CCCOc1ccccc1CN[C@@H]1CCC[C@H]1Cc1cc(C)no1 | class 0
* Cc1cc(C[C@@H]2CCC[C@H]2NCc2ccccc2C)on1 | class 0
* COc1ccc2c(c1)OC1(CCN(Cc3ccccc3C)CC1)CC2=O | class 1
* Cc1cc(C[C@@H]2CCC[C@H]2NCc2cccc(F)c2F)on1 | class 1
* CCOC(=O)CN1CCC2(CC1)CC(=O)c1ccc(OC)cc1O2 | class 0
* COc1ccc2c(c1)C(=O)CC1(CCN(Cc3ccc(F)cc3)CC1)O2 | class 1

###

Catalogue of INHIBITION values
# Test system: Plasmodium berghei
# Assay notes: Screen against P. berghei liver stage (PbLuc), transformed with Luciferase, at 10uM
# Assay type: functional, HepG2
# Particulars: tested at 10 uM
Hit rate of the full screen: of about 69,000 compounds, about 8,600 (12%) showed an effect of 50% or more. Only a selection was taken, and strong results are over-represented in it overall.
Assay endpoint: INHIBITION (%)

• Cn1cncc1-c1nnc([C@H]2CCN(Cc3ncc[nH]3)C2)o1 = 69.6
• Cn1cncc1-c1nnc([C@H]2CCN(Cc3ccc(CO)o3)C2)o1 = -18.2
• Cn1cncc1-c1nnc([C@H]2CCN(C3CCOCC3)C2)o1 = 4.61
• Cn1cncc1-c1nnc([C@H]2CCN(Cc3cccnc3)C2)o1 = 39.8
• Cc1ccccc1CN1CC[C@H](c2nnc(-c3cncn3C)o2)C1 = 5.96
• CN1CC[C@H](c2nnc(-c3cncn3C)o2)C1 = 61.5

###

# System: Plasmodium berghei
# Assay notes: Screen against P. berghei liver stage (PbLuc), transformed with Luciferase, at 10uM
# Type: functional, HepG2
# Particulars: tested at 10 uM
The whole screen tested about 69,000 compounds, of which about 8,600 (12%) showed an effect of 50% or more. The list comes from a sample in which strong results are over-represented; it also holds close analogues and randomly drawn compounds.
Please use label 1 whenever INHIBITION is not below 40%, and label 0 whenever it is.

• O=C1CO[C@@H]2CN(S(=O)(=O)c3ccc(F)cc3)C[C@H]2N1 = label 1
• COc1ncccc1NC(=O)c1[nH]nc(C(C)C)c1Br = label 0
• Cn1nccc1NC(=O)c1cccc(CN2C[C@H]3CC[C@@H](C2)N3)c1 = label 0
• O=C([C@H]1CCCO1)N1CCc2ncc(CN3CCOCC3)n2CC1 = label 0
• CC(C)c1n[nH]c(C(=O)Nc2ccccn2)c1Br = label 1
• O=C1CO[C@@H]2CN(S(=O)(=O)c3ccccc3F)C[C@H]2N1 = label 1
• CC(C(=O)Nc1ccnn1C(C)C)N1CCN(Cc2ccccc2)CC1 (stereo not drawn) = label 0
• Cc1nc2c(c(C)c1CC(=O)Nc1ccnn1C(C)C)c(=O)[nH]n2C = label 0
• CCCn1cc(NC(=O)c2cccc(CN3CC[C@H](O)C3)c2)nn1 = label 1
• CC(C)Nc1nc(C(=O)Nc2ccccn2)cs1 = label 0
• Cc1ccc(Cl)c(NC(=O)c2cccc(CN3CC[C@H](O)C3)c2)c1 = label 1
• O=C(CCCOc1ccccc1)N1CCCC(n2cncn2)C1 (stereo not drawn) = label 0
• C[C@@H]1C[C@H]2CN(S(=O)(=O)c3ccc(F)cc3)C[C@H]2O1 = label 0
• CN(CCSc1ccccc1)C(=O)C(c1cccnc1)N1CCOCC1 (stereo not drawn) = label 0
• COc1ccncc1NC(=O)c1[nH]nc(C(C)C)c1Br = label 0
• CCn1cc(NC(=O)c2cccc(CN3C[C@@H](C)O[C@@H](C)C3)c2)nn1 = label 1
• Cc1nn(C)c(C)c1NC(=O)c1cccc(CN2C[C@H]3CC[C@@H](C2)N3)c1 = label 0
• Cc1ccnc(NC(=O)c2ccc(Cl)o2)c1 = label 0
• CC(C)N(Cc1ccccn1)C(=O)CN(C)C(=O)c1cccs1 = label 0
• CS(=O)(=O)N1C[C@H]2CC[C@@H](C1)N(C(=O)Cn1ccc3ccccc31)C2 = label 0
• Cc1nn(C)c(C)c1NC(=O)c1cccc(CN2CCS(=O)(=O)CC2)c1 = label 1
• CN(CCCc1ccccc1)C(=O)c1cn2c(n1)CNCC2 = label 1
• CCCOC1CCCN(C(=O)c2csc(S(N)(=O)=O)c2)C1 (stereo not drawn) = label 0

Where do these numbers come from? They come from ChEMBL document CHEMBL4513216.
